Data provenance is paper PMC6826694.

- measurement_notes: Plasma pharmacokinetics of Galunisertib after single oral dose (HPLC-FL)
- Type: in vivo, mouse
- applied_conditions: mouse; Solution (150 mg/kg), single oral dose, female CD-1 mice, plasma
- Procedure: Firstly, we quantified the concentration of LY2157299 in plasma of female CD-1 mice by a liquid chromatographic method, in order to define the concentration for the therapeutic window. […] The volume of administration was 10mL/kg for single treatment. Physical appearance, behavior as well as general and local clinical signs of the mice were monitored throughout the experiment. […] To quantify the concentration of Galunisertib, plasma was measured by a HPLC/Fluorimetric (HPLC-FL) method. […]
measurement_name: half-life (h)
# unit: h | format: bare number

**Q:** Give the measured half-life of `Cc1cccc(-c2nn3c(c2-c2ccnc4ccc(C(N)=O)cc24)CCC3)n1` .
**A:** 1.71
